Molecular target: TLR2 (Homo sapiens)
Assay: TLR2 in vitro functional assay, cytokine release from human monocytic cell line THP-1
Assay type: cell-based
Conditions: THP-1 human monocytic cell line, average of all runs
Method: Cells of the immune system respond to TLR agonists in part by secreting cytokines. Functional assays for TLR2 agonists measure cytokine release from purified immune cells or immortalized cell lines derived from immune cells. Cytokine release is measured by standard ELISA approaches or multiplexed analysis using the Meso Scale Discovery (MSD) platform. […]
pEC50: −log10 of the molar value.
Field: pEC50. Provide a value for each of the compounds that follow.

**Q:** Given the entry CCCCCCCC(=O)N1CCN(C(=O)c2ccc(C(=O)N3C[C@@H](C(=O)N[C@H]4C[C@@H]4c4ccccc4)[C@H](C(=O)N[C@H]4C[C@@H]4c4ccccc4)C3)cc2)CC1C(=O)NCCc1ccc(F)cc1 (stereo partly shown) [Compound 036] , report its measured pEC50.
**A:** 7.30 to 10.00

**Q:** What do you get for CCCCCCCCCCCCCCNC(=O)[C@H]1CN(C(=O)c2ccc(C(=O)N3C[C@@H](C(=O)N[C@H]4C[C@@H]4c4ccccc4)[C@H](C(=O)N[C@H]4C[C@@H]4c4ccccc4)C3)cc2)C[C@@H]1OC [Compound 110] ?
**A:** 7.30 to 10.00

**Q:** What do you get for CCCCCCCO[C@@H]1CN(C(=O)c2ccc(C(=O)N3C[C@@H](C(=O)N[C@H]4C[C@@H]4c4ccccc4)[C@H](C(=O)N[C@H]4C[C@@H]4c4ccccc4)C3)cc2)C[C@H]1C(=O)NCCCCCC (single isomer, unassigned) [Compound 072] ?
**A:** 7.30 to 10.00

**Q:** What do you get for CCCCCCNC(=O)[C@H](CNC(=O)c1ccc(C(=O)N2C[C@@H](C(=O)N[C@H]3C[C@@H]3c3ccccc3)[C@H](C(=O)N[C@H]3C[C@@H]3c3ccccc3)C2)cc1)NC(=O)CCCCCC [Compound 025] ?
**A:** 7.30 to 10.00

* * *

Biological target: TLR2 (Homo sapiens, UniProt O60603)
Sequence (O60603 21-784): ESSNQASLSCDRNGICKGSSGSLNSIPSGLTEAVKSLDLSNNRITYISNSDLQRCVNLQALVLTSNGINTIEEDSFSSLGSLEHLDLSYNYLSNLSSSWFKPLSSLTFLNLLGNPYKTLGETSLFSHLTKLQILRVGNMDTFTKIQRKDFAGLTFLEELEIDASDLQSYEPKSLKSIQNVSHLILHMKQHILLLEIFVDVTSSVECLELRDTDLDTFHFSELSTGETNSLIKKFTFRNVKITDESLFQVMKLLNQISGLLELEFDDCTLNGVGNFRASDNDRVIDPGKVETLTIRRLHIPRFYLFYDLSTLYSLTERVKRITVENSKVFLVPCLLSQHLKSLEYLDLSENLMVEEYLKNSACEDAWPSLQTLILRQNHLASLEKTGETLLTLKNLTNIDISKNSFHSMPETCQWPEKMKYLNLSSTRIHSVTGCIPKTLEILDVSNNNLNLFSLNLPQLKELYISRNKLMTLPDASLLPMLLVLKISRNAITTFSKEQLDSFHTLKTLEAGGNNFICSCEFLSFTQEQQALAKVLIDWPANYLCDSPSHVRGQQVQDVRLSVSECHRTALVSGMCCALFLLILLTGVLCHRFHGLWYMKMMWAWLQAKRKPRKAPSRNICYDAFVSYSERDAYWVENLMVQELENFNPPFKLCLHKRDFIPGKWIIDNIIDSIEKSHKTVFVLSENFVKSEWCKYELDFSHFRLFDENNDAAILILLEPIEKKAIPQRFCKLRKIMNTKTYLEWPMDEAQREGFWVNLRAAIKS
Assay: TLR2 agonist screening assay, HEK-Blue TLR2 reporter cell line (NF-kB-driven SEAP, absorbance at 600 nm)
Format: cell-based
Design: host or cells: HEK-293 (HEK-Blue TLR2 reporter cell line)
Conditions: HEK-Blue TLR2 reporter cells, agonist mode; average of all runs (Table 4)
pEC50: −log10 of the molar value.
Field: pEC50. Provide a value for each of the compounds that follow.

**Q:** Query for TLR2 (Homo sapiens, UniProt O60603): what pEC50 does the record show for CCCCCCCCCCCCCNC(=O)N[C@H]1CN(c2nc3cc(C(=O)N4C[C@@H](C(=O)N[C@H]5C[C@@H]5c5ccccc5)[C@H](C(=O)N[C@H]5C[C@@H]5c5ccccc5)C4)ccc3o2)C[C@@H]1OC ?
**A:** < 6.00

**Q:** What do you get for CCCCCCNC(=O)C[C@@H](NC(=O)c1ccc(C(=O)N2C[C@@H](C(=O)N[C@H]3C[C@@H]3c3ccccc3)[C@H](C(=O)N[C@H]3C[C@@H]3c3ccccc3)C2)cc1)C(=O)NCCCCCC ?
**A:** < 6.00

**Q:** What do you get for CO[C@H]1CN(C(=O)c2ccc(C(=O)N3C[C@@H](C(=O)N[C@H]4C[C@@H]4c4ccccc4)[C@H](C(=O)N[C@H]4C[C@@H]4c4ccccc4)C3)cc2)C[C@@H]1NC(=O)NCCc1ccc(F)cc1 ?
**A:** < 6.00

**Q:** What do you get for CCCCCCCCCCCCCCNC(=O)[C@@H]1CN(S(=O)(=O)c2cccc(C(=O)N3C[C@@H](C(=O)N[C@H]4C[C@@H]4c4ccccc4)[C@H](C(=O)N[C@H]4C[C@@H]4c4ccccc4)C3)c2)CCN1C(C)=O ?
**A:** 6.46 to 7.29

**Q:** What do you get for CCCCCCNC(=O)[C@@H](CCNC(=O)c1ccc(C(=O)N2C[C@@H](C(=O)N[C@H]3C[C@@H]3c3ccccc3)[C@H](C(=O)N[C@H]3C[C@@H]3c3ccccc3)C2)cc1)NC(=O)CCCCCC ?
**A:** < 6.00

**Q:** What do you get for CCCCCCCCCCCCCNC(=O)N[C@H]1CN(c2nnc(-c3ccc(C(=O)N4C[C@@H](C(=O)N[C@H]5C[C@@H]5c5ccccc5)[C@H](C(=O)N[C@H]5C[C@@H]5c5ccccc5)C4)cc3)[nH]2)C[C@@H]1OC ?
**A:** < 6.00

**Q:** What do you get for CCCCCCCCN1C(=O)N(Cc2ccc(C(=O)N3C[C@@H](C(=O)N[C@H]4C[C@@H]4c4ccccc4)[C@H](C(=O)N[C@H]4C[C@@H]4c4ccccc4)C3)cc2)C[C@@H]1C(=O)NCCCCCC ?
**A:** 6.46 to 7.29

**Q:** What do you get for CCCCCCCC(=O)N1CCCN(C(=O)c2ccc(C(=O)N3C[C@@H](C(=O)N[C@H]4C[C@@H]4c4ccccc4)[C@H](C(=O)N[C@H]4C[C@@H]4c4ccccc4)C3)cc2)C[C@@H]1C(=O)NCCCCCC (single isomer, unassigned) ?
**A:** 6.00 to 6.45

**Q:** What do you get for CCCCCCCCNC(=O)N[C@@H](Cn1cc(-c2ccc(C(=O)N3C[C@@H](C(=O)N[C@H]4C[C@@H]4c4ccccc4)[C@H](C(=O)N[C@H]4C[C@@H]4c4ccccc4)C3)cc2)nn1)C(=O)NCCCCCC ?
**A:** 7.30 to 10.00

**Q:** What do you get for CCCCCCCO[C@H]1CN(C(=O)c2ccc(C(=O)N3C[C@@H](C(=O)N[C@H]4C[C@@H]4c4ccccc4)[C@H](C(=O)N[C@H]4C[C@@H]4c4ccccc4)C3)cc2)C[C@@H]1NC(=O)CCCCCC ?
**A:** 6.46 to 7.29

**Q:** What do you get for CCCCCCCC[C@H]1CN(C(=O)c2ccc(C(=O)N3C[C@@H](C(=O)N[C@H]4C[C@@H]4c4ccccc4)[C@H](C(=O)N[C@H]4C[C@@H]4c4ccccc4)C3)cc2)C[C@@H]1C(=O)NCCCCCC (single isomer, unassigned) ?
**A:** 6.46 to 7.29

**Q:** What do you get for CCCCCCNC(=O)[C@H](Cn1cc(-c2ccc(C(=O)N3C[C@@H](C(=O)N[C@H]4C[C@@H]4c4ccccc4)[C@H](C(=O)N[C@H]4C[C@@H]4c4ccccc4)C3)cc2)nn1)NC(=O)CCCCCC ?
**A:** 7.30 to 10.00

**Q:** What do you get for CCCCCCCNC(=O)[C@@H]1CN(C(=O)c2ccc(C(=O)N3C[C@@H](C(=O)N[C@H]4C[C@@H]4c4ccccc4)[C@H](C(=O)N[C@H]4C[C@@H]4c4ccccc4)C3)cc2)CCN1C(C)=O ?
**A:** < 6.00

**Q:** What do you get for CCCCCCCO[C@@H]1CN(C(=O)c2ccc(C(=O)N3C[C@@H](C(=O)N[C@H]4C[C@@H]4c4ccccc4)[C@H](C(=O)N[C@H]4C[C@@H]4c4ccccc4)C3)cc2)C[C@H]1C(=O)NCCCCCC (single isomer, unassigned) ?
**A:** 6.46 to 7.29

**Q:** What do you get for CCCCCCCCCCCCCNC(=O)N[C@H]1CN(c2ncc(-c3ccc(C(=O)N4C[C@@H](C(=O)N[C@H]5C[C@@H]5c5ccccc5)[C@H](C(=O)N[C@H]5C[C@@H]5c5ccccc5)C4)cc3)s2)C[C@@H]1OC ?
**A:** 6.00 to 6.45

**Q:** What do you get for CCCCCCCC(=O)N[C@@H](CNC(=O)c1ccc(C(=O)N2C[C@@H](C(=O)N[C@H]3C[C@@H]3c3ccccc3)[C@H](C(=O)N[C@H]3C[C@@H]3c3ccccc3)C2)cc1)C(=O)NCCCCCC ?
**A:** 7.30 to 10.00

**Q:** What do you get for CCCCCCCCCCCCNC(=O)N[C@H]1CN(C(c2ccc(C(=O)N3C[C@@H](C(=O)N[C@H]4C[C@@H]4c4ccccc4)[C@H](C(=O)N[C@H]4C[C@@H]4c4ccccc4)C3)cc2)C(F)(F)F)C[C@@H]1OC (single isomer, unassigned) [Compound 233] ?
**A:** 7.30 to 10.00
